experiment: Cytotoxicity against human KBVIN cells by SRB assay; assay type: functional, cell-based
Parameter IC50: see the listing below.
Measurement Kind: IC50 (nM)

[[record]]
smiles_input = "CC[C@@]1(O)C(=O)OCc2c1cc1n(c2=O)Cc2c-1nc1ccccc1c2C(=O)c1ccoc1"
measurement_kind = "IC50"
recorded_result = 1800

[[record]]
smiles_input = "CC[C@@]1(O)C(=O)OCc2c1cc1n(c2=O)Cc2c-1nc1ccccc1c2C(=O)c1ccc2c(c1)OCO2"
measurement_kind = "IC50"
recorded_result = 1770

[[record]]
smiles_input = "CCC(=O)c1c2c(nc3ccccc13)-c1cc3c(c(=O)n1C2)COC(=O)[C@]3(O)CC"
measurement_kind = "IC50"
recorded_result = 28.7

[[record]]
smiles_input = "CC[C@@]1(O)C(=O)OCc2c1cc1n(c2=O)Cc2c-1nc1ccccc1c2C(=O)c1ccc(C)c(C)c1"
measurement_kind = "IC50"
recorded_result = 4620


* * *

Listing of recorded IC50 by entry.
experiment: Cytotoxicity against human KBVIN cells by SRB assay; type: functional, cell-based
Measurement Kind: IC50 (nM)

[[record]]
molecule = "CCc1c2c(nc3ccc(OC(=O)N4CCC(N5CCCCC5)CC4)cc13)-c1cc3c(c(=O)n1C2)COC(=O)[C@]3(O)CC [IRINOTECAN]"
relation_sign = ">"
recorded_result = 20000

[[record]]
molecule = "CC[C@@]1(O)C(=O)OCc2c1cc1n(c2=O)Cc2c-1nc1ccccc1c2C(=O)c1ccc(C)c(O)c1"
relation_sign = "="
recorded_result = 1140

[[record]]
molecule = "CC[C@@]1(O)C(=O)OCc2c1cc1n(c2=O)Cc2c-1nc1ccccc1c2C(=O)c1ccc(Cl)cc1"
relation_sign = "="
recorded_result = 1120

[[record]]
molecule = "CC[C@@]1(O)C(=O)OCc2c1cc1n(c2=O)Cc2c-1nc1ccccc1c2C(=O)c1ccccc1"
relation_sign = "="
recorded_result = 11900

[[record]]
molecule = "CC[C@@]1(O)C(=O)OCc2c1cc1n(c2=O)Cc2c-1nc1ccccc1c2C(=O)c1ccc(O)cc1"
relation_sign = "="
recorded_result = 1790

[[record]]
molecule = "CC[C@@]1(O)C(=O)OCc2c1cc1n(c2=O)Cc2c-1nc1ccccc1c2C(=O)c1ccc(OC)cc1"
relation_sign = "="
recorded_result = 3140

[[record]]
molecule = "CC[C@@]1(O)C(=O)OCc2c1cc1n(c2=O)Cc2c-1nc1ccccc1c2C(=O)c1cc(OC)c(OC)c(OC)c1"
relation_sign = "="
recorded_result = 1170

[[record]]
molecule = "CC[C@@]1(O)C(=O)OCc2c1cc1n(c2=O)Cc2c-1nc1ccccc1c2C(=O)c1cc(OC)ccc1OC"
relation_sign = "="
recorded_result = 2250

[[record]]
molecule = "CC[C@@]1(O)C(=O)OCc2c1cc1n(c2=O)Cc2c-1nc1ccccc1c2C(C)=O"
relation_sign = "="
recorded_result = 131


* * *

system: DU-145; experiment: Cytotoxicity against human DU145 cells by SRB assay; type: functional, cell-based
pIC50: −log10 of the molar value.
Measurement Kind: pIC50

[[record]]
compound = "CC[C@@]1(O)C(=O)OCc2c1cc1n(c2=O)Cc2c-1nc1ccccc1c2C(=O)c1cc(OC)ccc1OC"
assayed_system = "DU-145"
measurement_kind = "pIC50"
recorded_result = 5.69

[[record]]
compound = "CC[C@@]1(O)C(=O)OCc2c1cc1n(c2=O)Cc2c-1nc1ccccc1c2C(C)=O"
assayed_system = "DU-145"
measurement_kind = "pIC50"
recorded_result = 7.40

[[record]]
compound = "CCc1c2c(nc3ccc(OC(=O)N4CCC(N5CCCCC5)CC4)cc13)-c1cc3c(c(=O)n1C2)COC(=O)[C@]3(O)CC [IRINOTECAN]"
assayed_system = "DU-145"
measurement_kind = "pIC50"
recorded_result = 5.03

[[record]]
compound = "CCC(=O)c1c2c(nc3ccccc13)-c1cc3c(c(=O)n1C2)COC(=O)[C@]3(O)CC"
assayed_system = "DU-145"
measurement_kind = "pIC50"
recorded_result = 7.05

[[record]]
compound = "CC[C@@]1(O)C(=O)OCc2c1cc1n(c2=O)Cc2c-1nc1ccccc1c2C(=O)c1ccc2c(c1)OCO2"
assayed_system = "DU-145"
measurement_kind = "pIC50"
recorded_result = 5.59

[[record]]
compound = "CC[C@@]1(O)C(=O)OCc2c1cc1n(c2=O)Cc2c-1nc1ccccc1c2C(=O)c1ccc(OC)cc1"
assayed_system = "DU-145"
measurement_kind = "pIC50"
recorded_result = 5.79


* * *

tested on: A549; test: Cytotoxicity against human A549 cells by SRB assay; assay type: functional, cell-based
This section presents compounds with their documented IC50 values.
Measurement Kind: IC50 (µM)

[[record]]
smiles_input = "CC[C@@]1(O)C(=O)OCc2c1cc1n(c2=O)Cc2c-1nc1ccccc1c2C(=O)c1ccc2c(c1)OCO2"
recorded_result = 1.13

[[record]]
smiles_input = "CC[C@@]1(O)C(=O)OCc2c1cc1n(c2=O)Cc2c-1nc1ccccc1c2C(=O)c1ccc(O)cc1"
recorded_result = 2.51

[[record]]
smiles_input = "CC[C@@]1(O)C(=O)OCc2c1cc1n(c2=O)Cc2c-1nc1ccccc1c2C(=O)c1ccc(Cl)cc1"
recorded_result = 0.949

[[record]]
smiles_input = "CC[C@@]1(O)C(=O)OCc2c1cc1n(c2=O)Cc2c-1nc1ccccc1c2C(=O)c1ccc(OC)cc1"
recorded_result = 0.911

[[record]]
smiles_input = "CCC(=O)c1c2c(nc3ccccc13)-c1cc3c(c(=O)n1C2)COC(=O)[C@]3(O)CC"
recorded_result = 0.0317

[[record]]
smiles_input = "CC[C@@]1(O)C(=O)OCc2c1cc1n(c2=O)Cc2c-1nc1ccccc1c2C(=O)c1cc(OC)c(OC)c(OC)c1"
recorded_result = 1

[[record]]
smiles_input = "CC[C@@]1(O)C(=O)OCc2c1cc1n(c2=O)Cc2c-1nc1ccccc1c2C(=O)c1ccoc1"
recorded_result = 2.02

[[record]]
smiles_input = "CC[C@@]1(O)C(=O)OCc2c1cc1n(c2=O)Cc2c-1nc1ccccc1c2C(=O)c1ccccc1"
recorded_result = 11

[[record]]
smiles_input = "CC[C@@]1(O)C(=O)OCc2c1cc1n(c2=O)Cc2c-1nc1ccccc1c2C(=O)c1cc(OC)ccc1OC"
recorded_result = 1.01

[[record]]
smiles_input = "CC[C@@]1(O)C(=O)OCc2c1cc1n(c2=O)Cc2c-1nc1ccccc1c2C(C)=O"
recorded_result = 0.0154

[[record]]
smiles_input = "CC[C@@]1(O)C(=O)OCc2c1cc1n(c2=O)Cc2c-1nc1ccccc1c2C(=O)c1ccc(C)c(O)c1"
recorded_result = 1.02

[[record]]
smiles_input = "CC[C@@]1(O)C(=O)OCc2c1cc1n(c2=O)Cc2c-1nc1ccccc1c2C(=O)c1ccc(C)c(C)c1"
recorded_result = 1


* * *

system: DU-145; assay: Cytotoxicity against human DU145 cells by SRB assay; format: functional, cell-based
pIC50: −log10 of the molar value.
Measurement Kind: pIC50

[[record]]
compound = "CC[C@@]1(O)C(=O)OCc2c1cc1n(c2=O)Cc2c-1nc1ccccc1c2C(=O)c1ccccc1"
assayed_system = "DU-145"
recorded_result = 4.96

[[record]]
compound = "CC[C@@]1(O)C(=O)OCc2c1cc1n(c2=O)Cc2c-1nc1ccccc1c2C(=O)c1ccc(C)c(C)c1"
assayed_system = "DU-145"
recorded_result = 5.77

[[record]]
compound = "CC[C@@]1(O)C(=O)OCc2c1cc1n(c2=O)Cc2cc3ccccc3nc2-1 [CAMPTOTHECIN]"
assayed_system = "DU-145"
recorded_result = 7.54

[[record]]
compound = "CC[C@@]1(O)C(=O)OCc2c1cc1n(c2=O)Cc2c-1nc1ccccc1c2C(=O)c1cc(OC)c(OC)c(OC)c1"
assayed_system = "DU-145"
recorded_result = 5.68

[[record]]
compound = "CC[C@@]1(O)C(=O)OCc2c1cc1n(c2=O)Cc2c-1nc1ccccc1c2C(=O)c1ccoc1"
assayed_system = "DU-145"
recorded_result = 5.70

[[record]]
compound = "CC[C@@]1(O)C(=O)OCc2c1cc1n(c2=O)Cc2c-1nc1ccccc1c2C(=O)c1ccc(Cl)cc1"
assayed_system = "DU-145"
recorded_result = 5.77

[[record]]
compound = "CC[C@@]1(O)C(=O)OCc2c1cc1n(c2=O)Cc2c-1nc1ccccc1c2C(=O)c1ccc(C)c(O)c1"
assayed_system = "DU-145"
recorded_result = 5.81

[[record]]
compound = "CC[C@@]1(O)C(=O)OCc2c1cc1n(c2=O)Cc2c-1nc1ccccc1c2C(=O)c1ccc(O)cc1"
assayed_system = "DU-145"
recorded_result = 5.52

